System: HCI-016 (organoid from a triple-negative breast cancer xenograft)
Experiment: CTG-3D luminescence at 96 h relative to day-0 seeding control (ratio to day 0); higher = more growth / less cytotoxicity; PDxO 3D drug screen, 96 h, CTG-3D normalised to day-0 seeding control.
Conditions: 10 µM; days in culture: 190
PROPERTY NAME: CTG-3D luminescence at 96 h
Give only the figure.

CC(C)(C(=O)NCC(F)(F)C(F)(F)F)C(=O)N[C@@H]1C(=O)Nc2ccccc2-c2ccccc21    1.46
O=C(O)C1(C(=O)O)CCC1.[NH2-].[NH2-].[Pt+2]    0.642
CC1(C)CCC(c2ccc(Cl)cc2)=C(CN2CCN(c3ccc(C(=O)NS(=O)(=O)c4ccc(N[C@H](CCN5CCOCC5)CSc5ccccc5)c(S(=O)(=O)C(F)(F)F)c4)cc3)CC2)C1    1.1
CN(Cc1cnc2nc(N)nc(N)c2n1)c1ccc(C(=O)N[C@@H](CCC(=O)O)C(=O)O)cc1 [methotrexate]    1.21
CS(=O)(=O)c1ccc(C(=O)Nc2ccc(Cl)c(-c3ccccn3)c2)c(Cl)c1    1.66
C[C@]12CC[C@@H]3c4ccc(O)cc4C[C@@H](CCCCCCCCC[S+]([O-])CCCC(F)(F)C(F)(F)F)[C@H]3[C@@H]1CC[C@@H]2O (stereo partly specified)    0.96
C/C=C1\NC(=O)[C@H]2CSSCC/C=C/[C@H](CC(=O)N[C@H](C(C)C)C(=O)N2)OC(=O)[C@H](C(C)C)NC1=O    -0.0529
NC1(C(=O)N[C@@H](CCO)c2ccc(Cl)cc2)CCN(c2nc[nH]c3nccc2-3)CC1    1.1
CC[C@H](NC(=O)[C@H](C)NC)C(=O)N1C[C@@H](O)C[C@H]1Cc1c(-c2[nH]c3cc(F)ccc3c2C[C@@H]2C[C@H](O)CN2C(=O)[C@H](CC)NC(=O)[C@H](C)NC)[nH]c2cc(F)ccc12    1.36
O=C(c1ccc(F)c(F)c1Nc1ccc(I)cc1F)N1CC(O)([C@@H]2CCCCN2)C1    0.962

Prompt line: Need CTG-3D luminescence at 96 h, item Cc1cc(Nc2ncc(Cl)c(Nc3ccccc3S(=O)(=O)C(C)C)n2)c(OC(C)C)cc1C1CCNCC1
Response line: 0.0979

---

Test system: HCI-008 (organoid from a HER2-enriched breast cancer xenograft)
Experiment: CTG-3D luminescence at 96 h relative to day-0 seeding control (ratio to day 0); higher = more growth / less cytotoxicity; PDxO 3D drug screen (set 2), 96 h, CTG-3D normalised to day-0 seeding control.
Conditions: 12.5 pM; days in culture: 382
Here, each record is paired with measured CTG-3D luminescence at 96 h data.
Give only the figure.

CO[C@H]1C[C@@H]2CC[C@@H](C)[C@@](O)(O2)C(=O)C(=O)N2CCCC[C@H]2C(=O)O[C@H]([C@H](C)C[C@@H]2CC[C@@H](O)[C@H](OC)C2)CC(=O)[C@H](C)/C=C(\C)[C@@H](O)[C@@H](OC)C(=O)[C@H](C)C[C@H](C)/C=C/C=C/C=C/1C    1.67

Query molecule follows.
Prompt line: Need CTG-3D luminescence at 96 h, item COc1cccc2c1C(=O)c1c(O)c3c(c(O)c1C2=O)C[C@@](O)(C(=O)CO)C[C@@H]3O[C@H]1C[C@H](N)[C@@H](O)[C@H](C)O1 [epirubicin]
Response line: 1.97

Cited source: the supplement of paper PMC8882468
